So I've got a bunch of molecules here, and I need their EC50 values.
Molecular target: GABA A receptor alpha-3/beta-2/gamma-2 (Homo sapiens, UniProt P18507+P34903+P47870)
Sequence (P47870 whole entry): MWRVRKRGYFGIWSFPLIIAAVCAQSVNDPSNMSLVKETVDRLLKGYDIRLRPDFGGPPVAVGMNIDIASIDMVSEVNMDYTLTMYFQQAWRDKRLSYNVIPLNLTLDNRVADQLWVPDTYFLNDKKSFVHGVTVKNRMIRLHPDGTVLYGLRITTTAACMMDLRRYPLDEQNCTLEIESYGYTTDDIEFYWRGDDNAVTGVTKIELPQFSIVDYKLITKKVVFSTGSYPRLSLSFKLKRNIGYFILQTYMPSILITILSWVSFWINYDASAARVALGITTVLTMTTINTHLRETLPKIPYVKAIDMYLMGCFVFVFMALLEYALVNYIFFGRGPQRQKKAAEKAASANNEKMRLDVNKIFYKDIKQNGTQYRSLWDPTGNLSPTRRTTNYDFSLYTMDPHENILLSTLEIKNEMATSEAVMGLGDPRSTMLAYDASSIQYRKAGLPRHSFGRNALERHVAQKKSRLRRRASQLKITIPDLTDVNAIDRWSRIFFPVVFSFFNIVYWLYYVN
Sequence (P18507 whole entry): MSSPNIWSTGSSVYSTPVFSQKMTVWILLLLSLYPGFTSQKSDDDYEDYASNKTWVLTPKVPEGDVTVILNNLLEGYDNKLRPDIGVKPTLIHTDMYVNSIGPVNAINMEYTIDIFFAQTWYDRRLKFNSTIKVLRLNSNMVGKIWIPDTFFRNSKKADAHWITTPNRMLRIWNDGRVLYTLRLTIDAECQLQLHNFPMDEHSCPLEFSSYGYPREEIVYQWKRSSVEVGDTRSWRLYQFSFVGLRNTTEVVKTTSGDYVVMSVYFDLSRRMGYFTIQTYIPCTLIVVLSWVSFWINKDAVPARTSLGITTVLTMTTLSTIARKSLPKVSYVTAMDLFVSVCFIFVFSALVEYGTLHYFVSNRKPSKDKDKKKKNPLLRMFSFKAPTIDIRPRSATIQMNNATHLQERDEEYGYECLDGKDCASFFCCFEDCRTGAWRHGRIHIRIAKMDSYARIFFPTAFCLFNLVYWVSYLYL
Sequence (P34903 whole entry): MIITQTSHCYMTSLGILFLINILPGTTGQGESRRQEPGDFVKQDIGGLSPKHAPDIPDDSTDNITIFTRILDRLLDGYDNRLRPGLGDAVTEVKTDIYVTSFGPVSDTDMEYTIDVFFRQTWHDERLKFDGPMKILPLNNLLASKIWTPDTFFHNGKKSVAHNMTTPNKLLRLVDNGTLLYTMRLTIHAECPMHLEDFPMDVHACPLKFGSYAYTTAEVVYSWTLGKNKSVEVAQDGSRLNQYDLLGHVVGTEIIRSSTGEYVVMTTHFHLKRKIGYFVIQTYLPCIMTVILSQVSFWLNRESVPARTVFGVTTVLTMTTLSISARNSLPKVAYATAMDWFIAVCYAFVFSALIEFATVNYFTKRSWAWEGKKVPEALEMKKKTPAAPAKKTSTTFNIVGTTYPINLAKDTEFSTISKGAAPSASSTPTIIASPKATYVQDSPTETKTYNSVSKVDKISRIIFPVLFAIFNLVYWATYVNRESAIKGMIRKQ
Assay: Agonist activity at human GABAAalpha3beta2gamma2S receptor expressed in tsA-201cells by FLIPR membrane potential blue assay
The figure you give is taken to be in µM; do not add the unit.

Ask: Let me know recorded EC50 for O=C(O)C1=CCNCC1 [ISOGUVACINE] , thanks.
Result: 5.6

Ask: Let me know recorded EC50 for O=C(O)C1CCNCC1 [ISONIPECOTIC ACID] , thanks.
Result: 17

Ask: Let me know recorded EC50 for NC1=NCC(C(=O)O)CN1 (centres undefined) , thanks.
Result: 19

Ask: Let me know recorded EC50 for NC1=NCC(C(=O)O)CC1 (centres undefined) , thanks.
Result: 1.1

====

Assay: Agonist activity at human GABAAalpha5beta2gamma2S receptor expressed in tsA-201cells by FLIPR membrane potential blue assay
Assay type: cell membranes
measured-quantity: pEC50
Response field accepts a number only; no unit should be typed.

Ask: Let me know recorded pEC50 for NC1=NCC(C(=O)O)CN1 (stereo not given) , thanks.
Result: 5.68

Ask: Let me know recorded pEC50 for O=C(O)C1=CCNCC1 [ISOGUVACINE] , thanks.
Result: 6.1

Ask: Let me know recorded pEC50 for NCc1cc(O)no1 [MUSCIMOL] , thanks.
Result: 7.27

Ask: Let me know recorded pEC50 for O=C(O)C1CCNCC1 [ISONIPECOTIC ACID] , thanks.
Result: 5.54

Ask: Let me know recorded pEC50 for NC1=NCC(C(=O)O)CC1 (stereo not given) , thanks.
Result: 7.04

====

Test: Dissociation constant, pKa of the compound by diode array detector method
Format: physicochemical
So I've got a bunch of compounds here, and I need their pKa values.
Response field accepts a number only; no unit should be typed.

Ask: Let me know recorded pKa for NC1=NCC(C(=O)O)CN1 (stereo unspecified) , thanks.
Result: 12.7

Ask: Let me know recorded pKa for NC1=NCC(C(=O)O)CC1 (stereo unspecified) , thanks.
Result: 12.4

Ask: Let me know recorded pKa for `Nc1ccc(C(=O)O)cn1` , thanks.
Result: 6.2

Ask: Let me know recorded pKa for `Nc1ncc(C(=O)O)cn1` , thanks.
Result: 1.9

Ask: Let me know recorded pKa for O=C(O)C1CN=CNC1 (stereo unspecified) , thanks.
Result: 12.2

Ask: Let me know recorded pKa for `O=C(O)c1cncnc1` , thanks.
Result: 1.4

====

Molecular target: GABA A receptor alpha-3/beta-2/gamma-2 (Homo sapiens) (UniProt P47870+P18507+P34903)
Assay: Agonist activity at human GABAAalpha3beta2gamma2S receptor expressed in tsA-201cells by FLIPR membrane potential blue assay relative to GABA
So I've got a bunch of compounds here, and I need their Rmax values.
The figure you give is taken to be in %; do not add the unit.

Ask: Let me know recorded Rmax for O=C(O)C1CCNCC1 [ISONIPECOTIC ACID] , thanks.
Result: 85

Ask: Let me know recorded Rmax for NC1=NCC(C(=O)O)CN1 (stereo not given) , thanks.
Result: 85

Ask: Let me know recorded Rmax for NC1=NCC(C(=O)O)CC1 (stereo not given) , thanks.
Result: 93

Ask: Let me know recorded Rmax for NCc1cc(O)no1 [MUSCIMOL] , thanks.
Result: 97

Ask: Let me know recorded Rmax for O=C(O)C1=CCNCC1 [ISOGUVACINE] , thanks.
Result: 91

====

Target: Gamma-aminobutyric acid receptor subunit rho-1 (Homo sapiens, UniProt P24046)
Sequence (P24046 whole entry): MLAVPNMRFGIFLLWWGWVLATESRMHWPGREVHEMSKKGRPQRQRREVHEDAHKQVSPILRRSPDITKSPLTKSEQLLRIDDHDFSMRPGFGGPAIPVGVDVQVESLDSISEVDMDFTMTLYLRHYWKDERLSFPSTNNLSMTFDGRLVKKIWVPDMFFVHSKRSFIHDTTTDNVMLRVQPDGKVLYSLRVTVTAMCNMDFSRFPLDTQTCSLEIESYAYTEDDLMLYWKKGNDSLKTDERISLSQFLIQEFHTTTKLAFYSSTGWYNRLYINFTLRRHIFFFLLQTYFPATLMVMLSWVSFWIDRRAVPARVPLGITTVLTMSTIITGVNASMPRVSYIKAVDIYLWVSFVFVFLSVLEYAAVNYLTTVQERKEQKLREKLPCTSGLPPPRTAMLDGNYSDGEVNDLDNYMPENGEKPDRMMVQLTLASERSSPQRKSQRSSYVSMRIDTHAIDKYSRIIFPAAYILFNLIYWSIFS
Assay: Agonist activity at human GABAA rho1 expressed in tsA-201cells by FLIPR membrane potential blue assay
Conditions: read-out: EC50
measured-quantity: EC50 (µM)
The figure you give is taken to be in µM; do not add the unit.

Ask: Let me know recorded EC50 for O=C(O)C1=CCNCC1 [ISOGUVACINE] , thanks.
Result: 39

Ask: Let me know recorded EC50 for NC1=NCC(C(=O)O)CN1 (configuration not stated) , thanks.
Result: 8.1

Ask: Let me know recorded EC50 for NC1=NCC(C(=O)O)CC1 (configuration not stated) , thanks.
Result: 2.3

====

Molecular target: GABA-A receptor; anion channel
Experiment: Displacement of [3H]muscimol from GABAA receptor in SPRD rat brain synaptic membranes by scintillation counting method
So I've got a bunch of compounds here, and I need their pKi values.
For clarity, pKi is expressed as the negative log10 of concentration in mol/L.

Ask: Let me know recorded pKi for `CCc1nc(N)ccc1C(=O)O` , thanks.
Result: 5.68

Ask: Let me know recorded pKi for O=C(O)C1CN=CNC1 (stereo unspecified) , thanks.
Result: 5.28

Ask: Let me know recorded pKi for CNC1=NCC(C(=O)O)CC1 (stereo unspecified) , thanks.
Result: 4.31

Ask: Let me know recorded pKi for `Cc1nc(N)ccc1C(=O)O` , thanks.
Result: 5.85

Ask: Let me know recorded pKi for `CCCCc1nc(N)ccc1C(=O)O` , thanks.
Result: 5.15

Ask: Let me know recorded pKi for `Nc1ccc(C(=O)O)cn1` , thanks.
Result: 5.36

Ask: Let me know recorded pKi for `Nc1ccc(CC(=O)O)cn1` , thanks.
Result: 4.05

Ask: Let me know recorded pKi for `Cc1cc(N)ncc1C(=O)O` , thanks.
Result: 5.44

Ask: Let me know recorded pKi for NC1=NCC(C(=O)O)CC1 (stereo unspecified) , thanks.
Result: 7.36

====

Target: Gamma-aminobutyric acid receptor subunit rho-1 (Homo sapiens)
Assay: Agonist activity at human GABAA rho1 expressed in tsA-201cells by FLIPR membrane potential blue assay relative to GABA
measured-quantity: Rmax

Ask: Let me know recorded Rmax for NC1=NCC(C(=O)O)CC1 (stereo not given) , thanks.
Result: 64%

Ask: Let me know recorded Rmax for `NCc1cc(O)no1` , thanks.
Result: 98%

Ask: Let me know recorded Rmax for NC1=NCC(C(=O)O)CN1 (stereo not given) , thanks.
Result: 55%

Ask: Let me know recorded Rmax for `O=C(O)C1=CCNCC1` , thanks.
Result: 85%

====

Biological target: GABA A receptor alpha-2/beta-2/gamma-2 (Homo sapiens) (UniProt P47870+P18507+P47869)
Assay: Agonist activity at human GABAAalpha2beta2gamma2S receptor expressed in tsA-201cells by FLIPR membrane potential blue assay relative to GABA
So I've got a bunch of molecules here, and I need their Rmax values.

Ask: Let me know recorded Rmax for NC1=NCC(C(=O)O)CC1 (stereo not given) , thanks.
Result: 101%

Ask: Let me know recorded Rmax for NCc1cc(O)no1 [MUSCIMOL] , thanks.
Result: 99%

Ask: Let me know recorded Rmax for O=C(O)C1=CCNCC1 [ISOGUVACINE] , thanks.
Result: 95%

Ask: Let me know recorded Rmax for O=C(O)C1CCNCC1 [ISONIPECOTIC ACID] , thanks.
Result: 85%

Ask: Let me know recorded Rmax for NC1=NCC(C(=O)O)CN1 (stereo not given) , thanks.
Result: 91%

====

Test system: tsA-201
Test: Agonist activity at human GABAAalpha5beta2gamma2S receptor expressed in tsA-201cells by FLIPR membrane potential blue assay relative to GABA
measured-quantity: Rmax (%)
The figure you give is taken to be in %; do not add the unit.

Ask: State recorded Rmax with tsA-201, entry `O=C(O)C1=CCNCC1` , no comment.
Result: 101

Ask: State recorded Rmax with tsA-201, entry NC1=NCC(C(=O)O)CC1 (stereo not given) , no comment.
Result: 100

Ask: State recorded Rmax with tsA-201, entry NC1=NCC(C(=O)O)CN1 (stereo not given) , no comment.
Result: 113

Ask: State recorded Rmax with tsA-201, entry `O=C(O)C1CCNCC1` , no comment.
Result: 115

Ask: State recorded Rmax with tsA-201, entry `NCc1cc(O)no1` , no comment.
Result: 114

====

Biological target: GABA-A receptor; anion channel
Assay: Displacement of [3H]muscimol from GABAA receptor in SPRD rat brain synaptic membranes by scintillation counting method
So I've got a bunch of compounds here, and I need their Ki values.

Ask: Let me know recorded Ki for `Nc1ncccc1C(=O)O` , thanks.
Result: > 100 µM

Ask: Let me know recorded Ki for `Nc1ncc(C(=O)O)cn1` , thanks.
Result: > 100 µM

Ask: Let me know recorded Ki for `Nc1ccc(C(=O)O)c(Cl)n1` , thanks.
Result: > 100 µM

Ask: Let me know recorded Ki for NC1=NCC(C(=O)O)CN1 (stereo not drawn) , thanks.
Result: 0.54 µM

Ask: Let me know recorded Ki for `O=C(O)C1=CCNCC1` , thanks.
Result: 0.055 µM

Ask: Let me know recorded Ki for `CCc1cc(C(=O)O)cnc1N` , thanks.
Result: > 100 µM

Ask: Let me know recorded Ki for `CNc1ccc(C(=O)O)cn1` , thanks.
Result: > 100 µM

Ask: Let me know recorded Ki for `Nc1cc(C(=O)O)ccn1` , thanks.
Result: 19 µM
